System: HaCat
Assay: Cytotoxic Profiling of Annotated Libraries Using Quantitative High-Throughput Screening (AID 1296008); note: % is set by controls: 0 for no effect and ±100 for the full control effect; nearly all actives have a fitted effect of over 60% in size
Conditions: Five cell lines viability, CellTiter-Glo ATP luminescence, 48-72 h; stronger effect = lower value
Records with an inconclusive call do not appear.
READOUT TYPE: max response (%)
Expressed in %, but write only the number.

Record summary for O=C(C1CC1)N1CC[C@@H](Cn2c(-c3ccc(-c4ccc5occc5c4)cc3)nc3cnccc32)C1 : reported max response = -11.7

Record summary for O=c1ncn2nc(Sc3ccc(F)cc3F)ccc2c1-c1c(Cl)cccc1Cl : reported max response = -4.37

Record summary for Cc1ccccc1C(OCCN(C)C)c1ccccc1 (stereo unspecified) : reported max response = -11.7

Record summary for NCCCC(N)(C(=O)O)C(F)F (stereo unspecified) : reported max response = -8.41

Record summary for O=C1CCC(N2C(=O)c3ccccc3C2=O)C(=O)N1 (stereo unspecified) : reported max response = 2.55

Record summary for CNC(=O)c1ccc(C)c(-n2c(C)cc(OCc3ccc(F)cc3F)c(Br)c2=O)c1 : reported max response = -14.3

Record summary for CCn1c(-c2nonc2N)nc2cnc(Oc3cccc(NC(=O)c4ccc(OCCN5CCOCC5)cc4)c3)cc21 : reported max response = -18.5

Record summary for CNCc1ccc(-c2[nH]c3cc(F)cc4c3c2CCNC4=O)cc1 : reported max response = 4.8

Record summary for C[C@@H]1CN(Cc2ccc(F)cc2)[C@@H](C)CN1C(=O)c1cc2c(C(=O)C(=O)N(C)C)cn(C)c2cc1Cl : reported max response = -4.64

Record summary for O=C(C=Cc1ccc(/C=C/C(=O)Nc2ccc(C3=NCCN3)cc2)cc1)Nc1ccc(C2=NCCN2)cc1 : reported max response = -9.67

Record summary for CCCS(=O)(=O)Nc1ccc(F)c(C(=O)c2c[nH]c3ncc(-c4ccc(Cl)cc4)cc23)c1F : reported max response = -13.3

Record summary for CC(C)OC(=O)C1=CN(C(=O)c2ccc(F)c(F)c2)CC(C)(C)c2c1[nH]c1ccccc21 : reported max response = -4.65

Record summary for c1ccc([C@H]2CN3CCSC3=N2)cc1 : reported max response = 1.22

Record summary for CCC(C)n1ncn(-c2ccc(N3CCN(c4ccc(OC[C@H]5CO[C@](Cn6cncn6)(c6ccc(Cl)cc6Cl)O5)cc4)CC3)cc2)c1=O (stereo partly specified) : reported max response = 1.24

Record summary for COc1ccccc1[C@H](c1cccc2ccccc12)[C@@](C)(C#N)C(=O)N1CCC(c2cccc(C(F)(F)F)c2)CC1 : reported max response = -11.9

Record summary for CCCS(=O)(=O)Nc1ccc(F)c(C(=O)c2c[nH]c3ncc(Cl)cc23)c1F : reported max response = -1.82

Record summary for COc1cccc2cc(-c3nc(C4CCC(C(=O)O)CC4)n4ncnc(N)c34)[nH]c12 (stereo unspecified) : reported max response = -14.5

Record summary for O=C(Nc1cccnc1)N1CCC(Cc2cccc(Oc3ccc(C(F)(F)F)cn3)c2)CC1 : reported max response = -12.8

Record summary for Nc1cccc(S(=O)(=O)N2CCCN(S(=O)(=O)c3ccc4c(c3)OCCO4)CC2)c1 : reported max response = -12.2

Record summary for CN(C(=O)c1ccc(F)cc1C(F)(F)F)C1CCN(c2nnc(-c3ccnn3C)c3ccccc23)CC1 : reported max response = -6.53

Record summary for Cc1cc2c(F)c(Oc3ncnn4cc(OC[C@@H](C)O)c(C)c34)ccc2[nH]1 : reported max response = -13.8

====

Assay: qHTS Screen of the MIPE 4.0 Collection Against Ewings Sarcoma (TC32) (AID 1259256); note: nearly all actives have a fitted effect of over 45% in size
Conditions: TC32 Ewing sarcoma viability, CellTiter-Glo, 48 h; series mostly up to 45.8 µM
Results filed as inconclusive are left out. Active and inactive are the calls of the source. Calls come from the whole dose curve; as a rule, active = well fitted inhibition curve with a large enough effect; inconclusive = small, poorly fitted or top-dose-only effect; inactive = no such curve, though single readings can be large or run the other way.
Choose the fitting class; nothing outside YES for active, NO for inactive is accepted.

Give the logged outcome of this assay for the following compound: CCn1c(-c2nonc2N)nc2cnc(Oc3cccc(NC(=O)c4ccc(OCCN5CCOCC5)cc4)c3)cc21 YES

Give the logged outcome of this assay for the following compound: CCN(CC)CCCC(C)Nc1ccnc2cc(Cl)ccc12 (stereo not drawn) NO

Give the logged outcome of this assay for the following compound: O=c1n(CCCN2CCN(c3cccc(Cl)c3)CC2)nc2ccccn12 NO

Give the logged outcome of this assay for the following compound: CN(C)c1ccc(C2Nc3ccc4ccccc4c3C3=C2C(=O)CC(C)(C)C3)cc1Br (stereo not drawn) YES

Give the logged outcome of this assay for the following compound: Cc1cccc(-c2nn(C(=S)Nc3ccccc3)cc2-c2ccnc3ccccc23)n1 NO

Give the logged outcome of this assay for the following compound: CC(C)(Sc1ccc(CCN(CCCCC2CCCCC2)C(=O)NC2CCCCC2)cc1)C(=O)O YES

Give the logged outcome of this assay for the following compound: COc1cc(F)c(F)c(Nc2ccc(I)cc2F)c1NS(=O)(=O)C1(C[C@H](O)CO)CC1 YES

Give the logged outcome of this assay for the following compound: CCC(C)n1ncn(-c2ccc(N3CCN(c4ccc(OC[C@H]5CO[C@](Cn6cncn6)(c6ccc(Cl)cc6Cl)O5)cc4)CC3)cc2)c1=O (stereo partly drawn) NO

Give the logged outcome of this assay for the following compound: Cn1cnc2c(F)c(Nc3ccc(Br)cc3Cl)c(C(=O)NOCCO)cc21 YES

Give the logged outcome of this assay for the following compound: CC1(C)SCCN(S(=O)(=O)c2ccc(OCC#CCO)cc2)[C@@H]1C(=O)NO NO

Give the logged outcome of this assay for the following compound: Nc1nc2c(ncn2COCCO)c(=O)[nH]1 NO

Give the logged outcome of this assay for the following compound: NC(=O)c1cnccn1 NO

Give the logged outcome of this assay for the following compound: O=C(O)CCc1ccc(NCc2cccc(Oc3ccccc3)c2)cc1 NO

Give the logged outcome of this assay for the following compound: CCN(c1ccccc1)c1cc(NC)[n+](C)c(C)n1 YES

Give the logged outcome of this assay for the following compound: OC(CN1CCC(Cc2ccc(F)cc2)CC1)c1ccc(Cl)cc1 (stereo not drawn) NO

Give the logged outcome of this assay for the following compound: COc1cc2nccc(Oc3ccc(NC(=O)NC4CC4)c(Cl)c3)c2cc1C(N)=O YES

Give the logged outcome of this assay for the following compound: COc1ccc(C2=N[C@H](c3ccc(Cl)cc3)[C@H](c3ccc(Cl)cc3)N2C(=O)N2CCNC(=O)C2)c(OC(C)C)c1 YES

Give the logged outcome of this assay for the following compound: CN[C@@H](C)C(=O)N[C@H]1CCCC[C@H]2CC[C@@H](C(=O)N[C@@H](c3ccccc3)c3cn(CCCCc4ccc(CCCCn5cc([C@@H](NC(=O)[C@@H]6CC[C@@H]7CCCC[C@H](NC(=O)[C@H](C)NC)C(=O)N76)c6ccccc6)nn5)cc4)nn3)N2C1=O YES

Give the logged outcome of this assay for the following compound: CNC[C@H](O)c1cccc(O)c1 NO

Give the logged outcome of this assay for the following compound: Cc1c(C)c2c(c(C)c1O)CCC(C)(COc1ccc(CC3SC(=O)NC3=O)cc1)O2 (stereo not drawn) NO

Give the logged outcome of this assay for the following compound: COc1cccc2cc(-c3nc(C4CCC(C(=O)O)CC4)n4ncnc(N)c34)[nH]c12 (stereo not drawn) YES

Give the logged outcome of this assay for the following compound: COc1ccc(COc2cc3oc(=O)c4cc(C(C)O)ccc4c3cc2OC)cc1 (stereo not drawn) YES

Give the logged outcome of this assay for the following compound: CC(c1cc2ccccc2s1)N(O)C(N)=O (stereo not drawn) NO

====

Test system: PAD
Assay: qHTS profiling for inhibitors of Plasmodium falciparum proliferation (AID 504749); note: nearly all actives have a fitted effect of over 60% in size
Details: P. falciparum in erythrocytes, SYBR Green DNA, 72 h; series mostly up to 28.7 µM
Results filed as inconclusive are left out. The source made the active and inactive calls. Calls follow the shape of the dose curve; as a rule, active = well fitted inhibition curve with a large enough effect; inconclusive = small, poorly fitted or top-dose-only effect; inactive = flat fitted curve, though single readings scatter.
Choose the fitting class; nothing outside yes for active, no for inactive is accepted.

Give the logged outcome of this assay for the following compound: C1COC(NC(C2CC2)C2CC2)=N1 yes

Give the logged outcome of this assay for the following compound: CC(=O)Oc1ccccc1C(=O)O no

Give the logged outcome of this assay for the following compound: CCc1ccc(CCOc2ccc(CC3SC(=O)NC3=O)cc2)nc1 (stereo not drawn) no

====

Tested on: 3D7
Test: qHTS profiling for inhibitors of Plasmodium falciparum proliferation (AID 504749); note: nearly all actives have a fitted effect of over 60% in size
Conditions: P. falciparum in erythrocytes, SYBR Green DNA, 72 h; series mostly up to 28.7 µM
Inconclusive results are not listed. The source made the active and inactive calls. Calls follow the shape of the dose curve; as a rule, active = well fitted inhibition curve with a large enough effect; inconclusive = small, poorly fitted or top-dose-only effect; inactive = flat fitted curve, though single readings scatter.
READOUT TYPE: outcome

# count of solved cases: 4
>  <COMPOUND>
O=C1CCC(N2C(=O)c3ccccc3C2=O)C(=O)N1 (stereo not given)

>  <RESULT>
inactive

$$$$
>  <COMPOUND>
NCCc1ccc(O)c(O)c1

>  <RESULT>
inactive

$$$$
>  <COMPOUND>
Nc1nc2c(ncn2COCCO)c(=O)[nH]1

>  <RESULT>
inactive

$$$$
>  <COMPOUND>
Cc1oncc1C(=O)Nc1ccc(C(F)(F)F)cc1

>  <RESULT>
inactive

$$$$

// below: outcome requested for another compound
Record summary for CC(C[N+](C)(C)C)OC(N)=O (stereo not given) : reported outcome = inactive
